species on record: Rattus norvegicus; experiment: Open TG-GATES - Regimen: Single; format: toxicity, organism-based, Sprague-Dawley; parameters: regimen Single, gender Male, age 6 weeks; details: in vivo, po, 30 mg/kg, 24 h, tissue Blood, route gavage, dose level Middle
Recorded Plat for the following compounds

| Compound | Plat (x10_4/uL) |
| --- | --- |
| CC1=C(/C=C/C(C)=C/C=C/C(C)=C/CO)C(C)(C)CCC1 [RETINOL] | 124 |
| CN(C)CCCN1c2ccccc2CCc2ccc(Cl)cc21 [CLOMIPRAMINE] | 116.6 |
| CN(C)CCN(Cc1cccs1)c1ccccn1 | 124 |
| CN(C)CCCN1c2ccccc2CCc2ccccc21 [IMIPRAMINE] | 119.3 |

###

species: Rattus norvegicus; test: Open TG-GATES - Regimen: Single; assay type: toxicity, organism-based, Sprague-Dawley; set-up: regimen Single, gender Male, age 6 weeks; details: in vivo, po, 300 mg/kg, 9 h, tissue Plasma, route gavage, dose level Middle
Recorded TBIL for the following molecules

| Molecule | Uom | TBIL |
| --- | --- | --- |
| COc1ccc2[nH]c([S+]([O-])Cc3ncc(C)c(OC)c3C)nc2c1 (centres undefined) | mg/dL | 0.1 |
| COC1=CC(=O)C[C@@H](C)[C@]12Oc1c(Cl)c(OC)cc(OC)c1C2=O | mg/dL | 0.1 |
| NC(N)=Nc1nc(CSCCC(N)=NS(N)(=O)=O)cs1 | mg/dL | 0.1 |
| CCOC(=O)CCC(=O)O[C@H]1[C@H](O[C@@H]2[C@@H](C)[C@H](O[C@H]3C[C@@](C)(OC)[C@@H](O)[C@H](C)O3)[C@@H](C)C(=O)O[C@H](CC)[C@@](C)(O)[C@H](O)[C@@H](C)C(=O)[C@H](C)C[C@@]2(C)O)O[C@H](C)C[C@@H]1N(C)C [ERYTHROMYCIN ETHYLSUCCINATE] | mg/dL | 0.03 |

###

Recorded PT for the following compounds
organism: Rattus norvegicus; experiment: Open TG-GATES - Regimen: Single; type: toxicity, organism-based, Sprague-Dawley; set-up: regimen Single, gender Male, age 6 weeks; conditions: in vivo, po, 100 mg/kg, 9 h, tissue Blood, route gavage, dose level Low

| Compound | PT, s |
| --- | --- |
| NC(N)=Nc1nc(CSCCC(N)=NS(N)(=O)=O)cs1 | 12.1 |
| CCOC(=O)CCC(=O)O[C@H]1[C@H](O[C@@H]2[C@@H](C)[C@H](O[C@H]3C[C@@](C)(OC)[C@@H](O)[C@H](C)O3)[C@@H](C)C(=O)O[C@H](CC)[C@@](C)(O)[C@H](O)[C@@H](C)C(=O)[C@H](C)C[C@@]2(C)O)O[C@H](C)C[C@@H]1N(C)C [ERYTHROMYCIN ETHYLSUCCINATE] | 15.6 |
| COC1=CC(=O)C[C@@H](C)[C@]12Oc1c(Cl)c(OC)cc(OC)c1C2=O | 13.3 |
| COc1ccc2[nH]c([S+]([O-])Cc3ncc(C)c(OC)c3C)nc2c1 (centres undefined) | 12.8 |

###

species on record: Rattus norvegicus; assay: Open TG-GATES - Regimen: Single; type: toxicity, organism-based, Sprague-Dawley; set-up: regimen Single, gender Male, age 6 weeks; details: in vivo, po, 100 mg/kg, 9 h, tissue Plasma, route gavage, dose level Low
Measured Endpoint: GLC (mg/dL)

| Molecule | Quantitative Readout |
| --- | --- |
| NC(N)=Nc1nc(CSCCC(N)=NS(N)(=O)=O)cs1 [FAMOTIDINE] | 200.8 |
| CCOC(=O)CCC(=O)O[C@H]1[C@H](O[C@@H]2[C@@H](C)[C@H](O[C@H]3C[C@@](C)(OC)[C@@H](O)[C@H](C)O3)[C@@H](C)C(=O)O[C@H](CC)[C@@](C)(O)[C@H](O)[C@@H](C)C(=O)[C@H](C)C[C@@]2(C)O)O[C@H](C)C[C@@H]1N(C)C [ERYTHROMYCIN ETHYLSUCCINATE] | 188.8 |
| COC1=CC(=O)C[C@@H](C)[C@]12Oc1c(Cl)c(OC)cc(OC)c1C2=O [GRISEOFULVIN] | 199.6 |
| COc1ccc2[nH]c([S+]([O-])Cc3ncc(C)c(OC)c3C)nc2c1 (centres undefined) [OMEPRAZOLE] | 197.4 |

###

species: Rattus norvegicus; experiment: Open TG-GATES - Regimen: Daily Repeat; type: toxicity, organism-based, Sprague-Dawley; set-up: regimen Daily Repeat, gender Male, age 6 weeks; details: in vivo, po, 300 mg/kg, 72 h, route gavage, dose level Middle, time 3 day

| Compound | TERMINAL_BW (g) |
| --- | --- |
| CCOc1ccc(NC(=O)CC(C)O)cc1 (centres undefined) | 247.8 |
| COC1=CC(=O)C[C@@H](C)[C@]12Oc1c(Cl)c(OC)cc(OC)c1C2=O | 228.3 |
| NC(N)=Nc1nc(CSCCC(N)=NS(N)(=O)=O)cs1 | 225.8 |
| CCOC(=O)CCC(=O)O[C@H]1[C@H](O[C@@H]2[C@@H](C)[C@H](O[C@H]3C[C@@](C)(OC)[C@@H](O)[C@H](C)O3)[C@@H](C)C(=O)O[C@H](CC)[C@@](C)(O)[C@H](O)[C@@H](C)C(=O)[C@H](C)C[C@@]2(C)O)O[C@H](C)C[C@@H]1N(C)C [ERYTHROMYCIN ETHYLSUCCINATE] | 237.7 |

###

organism: Rattus norvegicus; assay: Open TG-GATES - Regimen: Daily Repeat; format: toxicity, organism-based, Sprague-Dawley; parameters: regimen Daily Repeat, gender Male, age 6 weeks; settings: in vivo, po, 0 mg/kg, […], tissue Plasma, route gavage, dose level Control, time 28 day

| Compound | RALB |
| --- | --- |
| CN(C)CCN(Cc1cccs1)c1ccccn1 | 3.1 g/dL |
| CN1C(=O)CN=C(c2ccccc2)c2cc(Cl)ccc21 | 4.1 g/dL |
| CC(C)OC(=O)C(C)(C)Oc1ccc(C(=O)c2ccc(Cl)cc2)cc1 [FENOFIBRATE] | 2.8 g/dL |
| COc1ccc2[nH]c([S+]([O-])Cc3ncc(C)c(OC)c3C)nc2c1 (stereo not drawn) | 3.4 g/dL |
| CCOC(=O)CCC(=O)O[C@H]1[C@H](O[C@@H]2[C@@H](C)[C@H](O[C@H]3C[C@@](C)(OC)[C@@H](O)[C@H](C)O3)[C@@H](C)C(=O)O[C@H](CC)[C@@](C)(O)[C@H](O)[C@@H](C)C(=O)[C@H](C)C[C@@]2(C)O)O[C@H](C)C[C@@H]1N(C)C [ERYTHROMYCIN ETHYLSUCCINATE] | 3 g/dL |
| COC1=CC(=O)C[C@@H](C)[C@]12Oc1c(Cl)c(OC)cc(OC)c1C2=O | 3.5 g/dL |
| CN(C)CCCN1c2ccccc2CCc2ccccc21 | 2.8 g/dL |
| CCCNC(=O)NS(=O)(=O)c1ccc(Cl)cc1 [CHLORPROPAMIDE] | 2.7 g/dL |

###

species: Rattus norvegicus; test: Open TG-GATES - Regimen: Single; assay type: toxicity, organism-based, Sprague-Dawley; parameters: regimen Single, gender Male, age 6 weeks; settings: in vivo, po, 100 mg/kg, 6 h, tissue Liver, route gavage, dose level Low
Recorded LIVER for the following compounds
Measured Endpoint: LIVER (g)

| Compound | Quantitative Readout |
| --- | --- |
| CCOC(=O)CCC(=O)O[C@H]1[C@H](O[C@@H]2[C@@H](C)[C@H](O[C@H]3C[C@@](C)(OC)[C@@H](O)[C@H](C)O3)[C@@H](C)C(=O)O[C@H](CC)[C@@](C)(O)[C@H](O)[C@@H](C)C(=O)[C@H](C)C[C@@]2(C)O)O[C@H](C)C[C@@H]1N(C)C [ERYTHROMYCIN ETHYLSUCCINATE] | 9.2 |
| NC(N)=Nc1nc(CSCCC(N)=NS(N)(=O)=O)cs1 | 9.4 |
| COC1=CC(=O)C[C@@H](C)[C@]12Oc1c(Cl)c(OC)cc(OC)c1C2=O | 9.1 |
| COc1ccc2[nH]c([S+]([O-])Cc3ncc(C)c(OC)c3C)nc2c1 (centres undefined) | 10.1 |

###

species on record: Rattus norvegicus; experiment: Open TG-GATES - Regimen: Daily Repeat; type: toxicity, organism-based, Sprague-Dawley; parameters: regimen Daily Repeat, gender Male, age 6 weeks; settings: in vivo, po, 300 mg/kg, […], tissue Blood, route gavage, dose level Middle, time 28 day
Measured Endpoint: Eos (%)

| Molecule | Uom | Quantitative Readout |
| --- | --- | --- |
| COc1ccc2[nH]c([S+]([O-])Cc3ncc(C)c(OC)c3C)nc2c1 (stereo not given) | % | 0.8 |
| CCOC(=O)CCC(=O)O[C@H]1[C@H](O[C@@H]2[C@@H](C)[C@H](O[C@H]3C[C@@](C)(OC)[C@@H](O)[C@H](C)O3)[C@@H](C)C(=O)O[C@H](CC)[C@@](C)(O)[C@H](O)[C@@H](C)C(=O)[C@H](C)C[C@@]2(C)O)O[C@H](C)C[C@@H]1N(C)C [ERYTHROMYCIN ETHYLSUCCINATE] | % | 1.2 |
| CCOc1ccc(NC(=O)CC(C)O)cc1 (stereo not given) | % | 1.4 |
| NC(N)=Nc1nc(CSCCC(N)=NS(N)(=O)=O)cs1 | % | 1.4 |
| COC1=CC(=O)C[C@@H](C)[C@]12Oc1c(Cl)c(OC)cc(OC)c1C2=O | % | 1 |
